# assay info: Absorption and elimination of tritiated compound in rats (blood tritium after intraperitoneal injection)
# Assay type: in vivo
# condition: rat approx. 450 g, intraperitoneal, 3 mg; read-out: peak concentration in the blood
parameter: Cmax (µM)
The answer is to be given in µM; state only the numeric part.

Challenge: Which Cmax reading was recorded for the molecule [N-]=[N+]=Nc1ccc(Cc2c(O)cc(O[C@@H]3O[C@H](CO)[C@@H](O)[C@H](O)[C@H]3O)c(C(=O)CCc3ccc(O)cc3)c2O)cc1 [phlorizin benzylazide] ?
Response given: 6.3

----------
# assay info: Absorption and elimination of tritiated compound in rats (blood tritium after intraperitoneal injection)
# Assay type: in vivo
# condition: rat approx. 450 g, intraperitoneal, 2 mg; read-out: peak concentration in the blood
parameter: Cmax (µM)
Kindly answer with a numeric value in µM, unit omitted.

Challenge: Report Cmax for [N-]=[N+]=Nc1ccc(Cc2c(O)cc(O[C@@H]3O[C@H](CO)[C@@H](O)[C@H](O)[C@H]3O)c(C(=O)CCc3ccc(O)cc3)c2O)cc1 [phlorizin benzylazide] please.
Response given: 5.1

----------
# assay info: Hemolysis of normal human red blood cells (turbidity at 610 nm)
# Type: cell-based
# condition: human, red blood cells; 62 (head: κ M) phlorizin benzylazide; cells 2 hours old, 30 min incubation, approx. 4° C., within 700 sec, n=4
# Experimental: Human red blood cells were obtained by venepuncture into Na citrate or EDTA vacutainers. They were used directly or stored in serum at 4° C. for various times. […] A relatively constant level of absorbance of light indicates decreased hemolysis occurring at the lower dosage and this was verified by concomitant counting of cells with a hemacytometer. Some typical data are shown in FIG. 1 showing the change in absorbance of light (note axis A) when the drug was added (at zero time). […]
parameter: hemolysis at 62 µM (%)
Number only, in %; omit the unit.

Challenge: Which measured hemolysis at 62 µM value corresponds to [N-]=[N+]=Nc1ccc(Cc2c(O)cc(O[C@@H]3O[C@H](CO)[C@@H](O)[C@H](O)[C@H]3O)c(C(=O)CCc3ccc(O)cc3)c2O)cc1 [phlorizin benzylazide] ?
Response given: 66

----------
# assay info: Absorption and elimination of tritiated compound in rats (blood tritium after intraperitoneal injection)
# Assay type: in vivo
# condition: rat approx. 450 g, intraperitoneal, 1 mg; read-out: peak concentration in the blood
# Protocol: An animal study was then conducted to determine the absorption and elimination and characteristics of the phlorizin benzylazide and the resulting level of safety. […] Thereafter, serial tail blood samples were taken at varying times and analyzed for tritium. […] The initial very rapid entry and elimination of a small fraction of the radioactivity was probably tritiated H2 O and other radioactive impurities. […]
parameter: Cmax (nM)
Response body: numeric value in nM, unit text excluded.

Challenge: Fill in the blank: the reported Cmax of [N-]=[N+]=Nc1ccc(Cc2c(O)cc(O[C@@H]3O[C@H](CO)[C@@H](O)[C@H](O)[C@H]3O)c(C(=O)CCc3ccc(O)cc3)c2O)cc1 [phlorizin benzylazide] is ____.
Response given: 2500

----------
# assay info: Hemolysis of normal human red blood cells (turbidity at 610 nm)
# Format: cell-based
# condition: human, red blood cells; 4 (head: κ M) phlorizin benzylazide; cells 2 hours old, 30 min incubation, approx. 4° C., within 700 sec, n=4
parameter: hemolysis at 4 µM (%)
Provide the reading as a plain figure in %.

Challenge: Query (molecule): [N-]=[N+]=Nc1ccc(Cc2c(O)cc(O[C@@H]3O[C@H](CO)[C@@H](O)[C@H](O)[C@H]3O)c(C(=O)CCc3ccc(O)cc3)c2O)cc1 [phlorizin benzylazide] ; field requested: hemolysis at 4 µM
Response given: 0
